tested on: Hsp90/Cdc37; experiment: FIMM screening in split Renilla luciferase assay with hypomorphic NRL-Hsp90 construct, 20 μM; type: biochemical; conditions: DMSO = 1.00
Where a name gives a salt, the structure may show the parent alone.
reportedEndpoint: normalized RLU (FIMM Screening-1)

>>> measuredresult("C=CCNC1=C2C[C@@H](C)C[C@H](OC)[C@H](O)[C@@H](C)/C=C(\\C)[C@H](OC(N)=O)[C@@H](OC)/C=C\\C=C(/C)C(=O)NC(=CC1=O)C2=O [17-AAG, 17-allylamino-17-demethoxy-geldanamycin, reference compound]")
0.89
>>> measuredresult("C/C1=C\\[C@H](C)C[C@H](C)[C@H](Cc2cnco2)OC(=O)/C(C)=C/[C@H](C)C[C@H](C)[C@H](Cc2cnco2)OC1=O [conglobatin A, reference compound]")
0.51
>>> measuredresult("Cc1ccc(Nc2ccc(C(=O)O)cc2N)cc1")
0.56
>>> measuredresult("O=C(O[C@@H]1Cc2c(O)cc(O)cc2O[C@@H]1c1cc(O)c(=O)c2c(O)c(O)cc([C@H]3Oc4cc(O)cc(O)c4C[C@H]3OC(=O)c3cc(O)c(O)c(O)c3)c2c1)c1cc(O)c(O)c(O)c1 [compound 2, Theaflavin 3,3-digallate]")
0.12
>>> measuredresult("O=C(O[C@@H]1Cc2c(O)cc(O)cc2O[C@@H]1c1cc(O)c(=O)c2c(O)c(O)cc([C@H]3Oc4cc(O)cc(O)c4C[C@H]3O)c2c1)c1cc(O)c(O)c(O)c1")
0.25
>>> measuredresult("NC[C@@H]1O[C@H](O[C@H]2[C@@H](O)[C@H](O[C@@H]3[C@@H](O)[C@H](N)C[C@H](N)[C@H]3O[C@H]3O[C@H](CO)[C@@H](O)[C@H](O)[C@H]3N)O[C@@H]2CO)[C@H](N)[C@@H](O)[C@@H]1O [compound 6, Paromomycin sulfate, reference compound]")
0.67
>>> measuredresult("O=C(O[C@@H]1Cc2c(O)cc(O)cc2O[C@@H]1c1cc(O)c(O)c(O)c1)c1cc(O)c(O)c(O)c1 [compound 3, Epigallocatechin gallate]")
0.45
>>> measuredresult("CCOc1ccc(C(=O)c2ccc(O)c(O)c2O)cc1 [×1540, 2,3,4-TRIHYDROXY-4'-ETHOXYBENZOPHENONE]")
0.76
>>> measuredresult("O=c1c(O)cc([C@H]2Oc3cc(O)cc(O)c3C[C@H]2O)cc2c([C@H]3Oc4cc(O)cc(O)c4C[C@H]3O)cc(O)c(O)c12")
0.25
>>> measuredresult("NC(CSS(=O)(=O)O)=NCCC12CC3CC(CC(O)(C3)C1)C2")
0.22
